- measurement_protocol: Approximate (kinetic) solubility estimate by aliquot addition with visual inspection
- Type: physicochemical
- study_conditions: organic solvent or mixture, thermodynamic from solid; DCM, ambient temperature
readout: solubility (mg/mL)
One number for each entry, in mg/mL.

Using the record for C=C(C)[C@@H]1CCC(C)=C[C@H]1c1c(O)cc(CCCCC)cc1O , report its solubility.
19
